System: human neuroblastoma SH-SY5Y cell line
protocol-details: MTT cytotoxicity assay, SH-SY5Y
Assay type: cell-based
condition: free drugs 72 h, NPs media changed after 12 h plus 60 h
measure-name: pIC50
The quantity pIC50 is defined as the negative base-10 logarithm of the molar concentration.

Recorded pIC50 for N.N.[Cl][Pt][Cl] [Cisplatin, Cisdiamminedichloridoplatinum(II), reference compound] , please? 4.72

###

System: human mesenchymal stem cells (hMSCs)
condition: hMSC; MTT; free drugs 72 h, NPs media changed after 12 h plus 60 h
measure-name: pIC50
The quantity pIC50 is defined as the negative base-10 logarithm of the molar concentration.

Recorded pIC50 for N.N.[Cl][Pt][Cl] [Cisplatin, Cisdiamminedichloridoplatinum(II), reference compound] , please? 4.79

###

Test system: PCa PC3 cell line
protocol-details: MTT cytotoxicity assay, PC3
Type: cell-based, human
condition: free drugs 72 h, NPs media changed after 12 h plus 60 h
measure-name: IC50 (µM)
Entry rule: numbers only, all in µM.

Recorded IC50 for N.N.[Cl][Pt][Cl] [Cisplatin, Cisdiamminedichloridoplatinum(II), reference compound] , please? 13.1
